Biological target: Axl phosphorylation in 293MSR-AxlWT6 cells (Homo sapiens (Human))
Sequence (P30530 26-894): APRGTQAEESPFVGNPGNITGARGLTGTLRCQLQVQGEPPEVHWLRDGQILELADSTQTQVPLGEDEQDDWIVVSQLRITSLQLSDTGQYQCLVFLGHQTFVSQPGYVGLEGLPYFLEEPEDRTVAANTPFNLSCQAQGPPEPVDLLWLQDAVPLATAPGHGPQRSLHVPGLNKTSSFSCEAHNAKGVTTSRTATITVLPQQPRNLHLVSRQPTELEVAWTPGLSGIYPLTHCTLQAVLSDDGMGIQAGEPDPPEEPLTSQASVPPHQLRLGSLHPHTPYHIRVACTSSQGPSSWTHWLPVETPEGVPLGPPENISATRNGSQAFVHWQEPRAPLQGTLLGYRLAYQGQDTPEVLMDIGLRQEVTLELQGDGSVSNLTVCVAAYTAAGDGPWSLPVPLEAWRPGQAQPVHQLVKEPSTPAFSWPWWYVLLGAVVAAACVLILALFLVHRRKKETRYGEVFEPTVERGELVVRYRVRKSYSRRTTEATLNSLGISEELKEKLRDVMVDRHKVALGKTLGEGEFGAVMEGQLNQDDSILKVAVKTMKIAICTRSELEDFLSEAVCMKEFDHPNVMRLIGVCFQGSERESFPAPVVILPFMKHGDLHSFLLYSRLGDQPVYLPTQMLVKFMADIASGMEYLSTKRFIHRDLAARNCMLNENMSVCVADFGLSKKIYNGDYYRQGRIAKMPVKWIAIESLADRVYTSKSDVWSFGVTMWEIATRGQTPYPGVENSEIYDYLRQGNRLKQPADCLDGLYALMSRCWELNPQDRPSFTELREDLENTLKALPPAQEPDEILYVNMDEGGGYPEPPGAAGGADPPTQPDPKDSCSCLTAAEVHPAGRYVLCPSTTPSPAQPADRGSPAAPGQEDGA
Assay: Cellular Axl phosphorylation ELISA assay (Gas6-stimulated 293MSR-AxlWT6 cells)
Type: cell-based
Conditions: Table 4A, read-out: CELL AXL IC50
readout-kind: IC50 (µM)

>  <compound>
C[C@@H](NC(=O)c1cc(N2CCC(c3cccc(C(N)=O)n3)CC2)nc(OCC2CC2(F)F)n1)C(C)(C)O (stereo partly drawn)

>  <target-desc>
Axl phosphorylation in 293MSR-AxlWT6 cells (Homo sapiens (Human))

>  <unit-annotation>
µM

>  <endpoint-value>
0.0399

$$$$
>  <compound>
N#C[C@@H]1C[C@@H]1COc1nc(C(=O)NC23CC(C2)C3)cc(N2CCC(COc3cncnc3N)C(F)(F)C2)n1 (single isomer, unassigned)

>  <target-desc>
Axl phosphorylation in 293MSR-AxlWT6 cells (Homo sapiens (Human))

>  <unit-annotation>
µM

>  <endpoint-value>
0.0387

$$$$
>  <compound>
N#C[C@@H]1C[C@@H]1COc1nc(C(=O)NC23CC(C2)C3)cc(N2CCC(c3n[nH]c4ncccc34)C(F)C2)n1 (single isomer, unassigned)

>  <target-desc>
Axl phosphorylation in 293MSR-AxlWT6 cells (Homo sapiens (Human))

>  <unit-annotation>
µM

>  <endpoint-value>
0.0155

$$$$
>  <compound>
CCNC(=O)c1cc(N2CCC(COc3cc(-c4cnn(CCO)c4)cnc3N)CC2)nc(O[C@H](C)COC)n1

>  <target-desc>
Axl phosphorylation in 293MSR-AxlWT6 cells (Homo sapiens (Human))

>  <unit-annotation>
µM

>  <endpoint-value>
0.0167

$$$$
>  <compound>
COC[C@@H](C)Oc1nc(C(=O)N[C@H](C)CN(C)C)cc(N2CCC(c3ccc(N)c(C(N)=O)n3)CC2)n1 (single isomer, unassigned)

>  <target-desc>
Axl phosphorylation in 293MSR-AxlWT6 cells (Homo sapiens (Human))

>  <unit-annotation>
µM

>  <endpoint-value>
0.0874

$$$$
>  <compound>
C[C@H](NC(=O)c1cc(N2CCC(c3cccc(C(N)=O)n3)CC2)nc(OCC2(C#N)CC2)n1)C(F)(F)F

>  <target-desc>
Axl phosphorylation in 293MSR-AxlWT6 cells (Homo sapiens (Human))

>  <unit-annotation>
µM

>  <endpoint-value>
0.059

$$$$
>  <compound>
N#CC1(COc2nc(C(=O)NC34CC(C3)C4)nc(N3CCC(c4n[nH]c5ncccc45)CC3)n2)CC1

>  <target-desc>
Axl phosphorylation in 293MSR-AxlWT6 cells (Homo sapiens (Human))

>  <unit-annotation>
µM

>  <endpoint-value>
0.00274

$$$$
>  <compound>
N#C[C@@H]1C[C@@H]1COc1nc(C(=O)NC23CC(C2)C3)cc(N2CC[C@@H](c3n[nH]c4ncccc34)[C@@H](F)C2)n1 (single isomer, unassigned)

>  <target-desc>
Axl phosphorylation in 293MSR-AxlWT6 cells (Homo sapiens (Human))

>  <unit-annotation>
µM

>  <endpoint-value>
0.00842

$$$$
>  <compound>
N#C[C@@H]1C[C@@H]1COc1nc(C(=O)NC(CCO)C(F)(F)F)cc(N2CCC(COc3cncnc3N)CC2)n1 (stereo partly drawn)

>  <target-desc>
Axl phosphorylation in 293MSR-AxlWT6 cells (Homo sapiens (Human))

>  <unit-annotation>
µM

>  <endpoint-value>
0.455

$$$$
>  <compound>
CC(CN(C)C)NC(=O)c1cc(N2CCC(c3ccc(N)c(C(N)=O)n3)CC2)nc(OCC2CC2)n1 (stereo not drawn)

>  <target-desc>
Axl phosphorylation in 293MSR-AxlWT6 cells (Homo sapiens (Human))

>  <unit-annotation>
µM

>  <endpoint-value>
0.0305

$$$$
>  <compound>
C[C@H](CO)NC(=O)c1cc(N2CCC(c3n[nH]c4ncccc34)CC2)nc(OCC2CC2)n1

>  <target-desc>
Axl phosphorylation in 293MSR-AxlWT6 cells (Homo sapiens (Human))

>  <unit-annotation>
µM

>  <endpoint-value>
0.00431

$$$$
>  <compound>
C[C@H](CO)NC(=O)c1cc(N2CCC(c3n[nH]c4ncccc34)CC2)nc(OC[C@H]2CCOC2)n1

>  <target-desc>
Axl phosphorylation in 293MSR-AxlWT6 cells (Homo sapiens (Human))

>  <unit-annotation>
µM

>  <endpoint-value>
0.12

$$$$
>  <compound>
CCNC(=O)c1cc(N2CCC(COc3cc(-c4cnn(C)c4)cnc3N)CC2)nc(OCC(C)O)n1 (stereo not drawn)

>  <target-desc>
Axl phosphorylation in 293MSR-AxlWT6 cells (Homo sapiens (Human))

>  <unit-annotation>
µM

>  <endpoint-value>
0.235

$$$$
>  <compound>
N#C[C@@H]1C[C@@H]1COc1nc(C(=O)NC23CC(C2)C3)cc(N2CCC(c3n[nH]c4ncc(OCCO)cc34)CC2)n1

>  <target-desc>
Axl phosphorylation in 293MSR-AxlWT6 cells (Homo sapiens (Human))

>  <unit-annotation>
µM

>  <endpoint-value>
0.00521

$$$$
>  <compound>
COC[C@@H](C)Oc1nc(C(=O)NC2CCC2)cc(N2CCC(c3cccc(C(N)=O)n3)CC2)n1

>  <target-desc>
Axl phosphorylation in 293MSR-AxlWT6 cells (Homo sapiens (Human))

>  <unit-annotation>
µM

>  <endpoint-value>
0.0102

$$$$
>  <compound>
COC[C@@H](C)Oc1nc(C(=O)NCC(C)(C)O)cc(N2CCC(c3ccc(N)c(C(N)=O)n3)CC2)n1

>  <target-desc>
Axl phosphorylation in 293MSR-AxlWT6 cells (Homo sapiens (Human))

>  <unit-annotation>
µM

>  <endpoint-value>
0.0779

$$$$
>  <compound>
COC[C@@H](C)Oc1nc(C(=O)NC2CCC2)cc(N2CCC(c3ccc(N)c(C(N)=O)n3)CC2)n1

>  <target-desc>
Axl phosphorylation in 293MSR-AxlWT6 cells (Homo sapiens (Human))

>  <unit-annotation>
µM

>  <endpoint-value>
0.00283

$$$$
>  <compound>
N#CC1(COc2nc(C(=O)NCC(F)(F)F)nc(N3CCC(COc4cccnc4N)CC3)n2)CC1

>  <target-desc>
Axl phosphorylation in 293MSR-AxlWT6 cells (Homo sapiens (Human))

>  <unit-annotation>
µM

>  <endpoint-value>
0.0649

$$$$
>  <compound>
C[C@H](CO)NC(=O)c1cc(N2CCC(c3n[nH]c4ncccc34)CC2)nc(OCC2CC(F)(F)C2)n1

>  <target-desc>
Axl phosphorylation in 293MSR-AxlWT6 cells (Homo sapiens (Human))

>  <unit-annotation>
µM

>  <endpoint-value>
0.00384

$$$$
>  <compound>
CS(=O)(=O)COc1cnc2[nH]nc(C3CCN(c4cc(C(=O)NC56CC(C5)C6)nc(OC[C@H]5C[C@H]5C#N)n4)CC3)c2c1

>  <target-desc>
Axl phosphorylation in 293MSR-AxlWT6 cells (Homo sapiens (Human))

>  <unit-annotation>
µM

>  <endpoint-value>
0.0428

$$$$
>  <compound>
CS(=O)(=O)COc1ccnc2[nH]nc(C3CCN(c4cc(C(=O)NC56CC(C5)C6)nc(OC[C@H]5C[C@H]5C#N)n4)CC3)c12

>  <target-desc>
Axl phosphorylation in 293MSR-AxlWT6 cells (Homo sapiens (Human))

>  <unit-annotation>
µM

>  <endpoint-value>
0.0187

$$$$
